Biological target: SARS-CoV-2 RdRp holoenzyme (Severe acute respiratory syndrome coronavirus 2)
Construct: (Sf nsp12-3F/7L8 preincubated with Sf 7H8 at a 1:3 ratio); 3F (3xFlag) (C); made in house; host or cells: 'Sf', read as Spodoptera frugiperda insect cells (my inference from the prefix); details are in Bertolin et al
Test: FRET-based RdRp strand displacement assay
Type: biochemical
Conditions: RNA (RdRp substrate), 0.3 mM each NTP, 0.02% Tween-20 in RdRp assay buffer; read-out: IC50 RdRp
Let's look at some molecules and their measured IC50.
Only the number, expressed in µM, is required.

Tell me measured IC50 for CC(C)c1ccccc1Cc1cc(C(=O)Nc2ccc(S(=O)(=O)c3ccccc3C(C)(C)C)cc2)c(O)c(O)c1O please.
27

New cases:
Respond only with IC50 recorded for CC/C=C\C/C=C\C/C=C\C/C=C\C/C=C\CCCC(=O)O
29

Answer with the recorded IC50 for the molecule listed here: COc1cc(C(=O)O)ccc1NC(=O)[C@@H]1N[C@@H](CC(C)(C)C)[C@](C#N)(c2ccc(Cl)cc2F)[C@H]1c1cccc(Cl)c1F
36

Cited source for all entries: paper PMC8286831
